Would you mind telling me the reported inhibition of each entry?
systemName: 5'-AMP-activated protein kinase catalytic subunit alpha-2 (Homo sapiens) (UniProt P54646)
Sequence (P54646 whole entry, looked up): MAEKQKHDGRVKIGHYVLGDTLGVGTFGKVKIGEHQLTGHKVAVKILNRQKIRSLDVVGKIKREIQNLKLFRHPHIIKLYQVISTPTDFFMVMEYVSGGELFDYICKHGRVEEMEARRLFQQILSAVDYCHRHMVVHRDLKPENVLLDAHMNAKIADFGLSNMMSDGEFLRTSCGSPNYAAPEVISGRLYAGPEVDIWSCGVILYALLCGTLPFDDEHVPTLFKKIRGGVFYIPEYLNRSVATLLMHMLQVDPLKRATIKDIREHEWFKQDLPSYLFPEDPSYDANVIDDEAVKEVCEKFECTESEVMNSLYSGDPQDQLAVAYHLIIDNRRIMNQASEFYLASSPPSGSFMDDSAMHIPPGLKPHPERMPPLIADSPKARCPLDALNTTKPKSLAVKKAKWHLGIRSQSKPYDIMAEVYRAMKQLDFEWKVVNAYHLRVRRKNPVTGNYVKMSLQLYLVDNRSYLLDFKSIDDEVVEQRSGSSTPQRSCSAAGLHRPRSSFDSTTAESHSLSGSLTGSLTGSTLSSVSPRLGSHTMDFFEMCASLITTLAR
conditionParameters: at 0.1 µM
Description: GSK_PKIS: AMPKA2 (A2B1G1) mean inhibition at 0.1 uM [Nanosyn]
Give bare numbers, in %.

Consider the reported inhibition for these compounds:
>  <compound>
COc1cc(Nc2ncc(-c3ccccc3)o2)cc(OC)c1OC

>  <systemName>
5'-AMP-activated protein kinase catalytic subunit alpha-2 (Homo sapiens) (UniProt P54646)

>  <valueUnits>
%

>  <inhibition>
5

$$$$
>  <compound>
COc1cccc(-n2cnc3c(N/N=C/c4ccncc4)ncnc32)c1

>  <systemName>
5'-AMP-activated protein kinase catalytic subunit alpha-2 (Homo sapiens) (UniProt P54646)

>  <valueUnits>
%

>  <inhibition>
-1.1

$$$$
>  <compound>
NCc1ccc(-n2c(-c3nonc3N)nc3cnccc32)cc1

>  <systemName>
5'-AMP-activated protein kinase catalytic subunit alpha-2 (Homo sapiens) (UniProt P54646);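 further: mean inhibition measured on the AMPK complex of alpha2, beta1 and gamma1 subunits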

>  <valueUnits>
%

>  <inhibition>
6.07

$$$$

State the recorded inhibition for every item in the following list.
1. COc1ccc2cc(-c3c(-c4ccncc4)nc(-c4ccc([S+](C)[O-])cc4C)n3C)ccc2c1 (stereo unspecified)
2. CN(C)CCOc1ccc(-c2cc(-c3ccc4c(c3)CCC4=NO)c(-c3ccncc3)o2)cc1
3. NC(=O)Cc1ccccc1Oc1nccc(-c2c(-c3ccc(F)cc3)ncn2C2CCNCC2)n1
4. CCS(=O)(=O)c1ccc(OC)c(Nc2ncc(-c3ccccc3Cl)o2)c1
5. O=C(Nc1n[nH]c2nc(-c3ccc(O)cc3)c(Br)cc12)C1CC1

Output:
1: 3.22; 2: 0.73; 3: 1.24; 4: -1.8; 5: 4.36

* * *

systemName: Tyrosine-protein kinase Srms (Homo sapiens) (UniProt Q9H3Y6)
Sequence (Q9H3Y6 whole entry): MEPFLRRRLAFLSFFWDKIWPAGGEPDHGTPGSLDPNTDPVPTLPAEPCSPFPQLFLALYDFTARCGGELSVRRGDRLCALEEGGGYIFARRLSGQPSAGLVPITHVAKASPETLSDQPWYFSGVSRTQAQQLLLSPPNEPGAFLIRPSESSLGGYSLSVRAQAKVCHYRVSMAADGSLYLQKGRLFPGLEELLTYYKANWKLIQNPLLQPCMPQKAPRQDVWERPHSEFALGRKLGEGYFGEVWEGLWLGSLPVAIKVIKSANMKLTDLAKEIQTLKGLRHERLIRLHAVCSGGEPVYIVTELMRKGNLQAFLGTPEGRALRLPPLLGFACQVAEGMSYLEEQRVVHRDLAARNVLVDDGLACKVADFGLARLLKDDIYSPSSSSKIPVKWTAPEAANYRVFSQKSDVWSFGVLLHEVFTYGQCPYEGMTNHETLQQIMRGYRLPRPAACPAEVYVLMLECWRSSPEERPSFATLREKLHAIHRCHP
conditionParameters: at 1 µM
Description: GSK_PKIS: SRMS mean inhibition at 1 uM [Nanosyn]
endpointName: inhibition (%)
Give bare numbers, in %.

Consider the reported inhibition for these compounds:
>  <compound>
Fc1ccc(-c2ncn(C3CCNCC3)c2-c2ccnc(Oc3ccc(Oc4ccccc4)cc3)n2)cc1

>  <inhibition / %>
-1.36

$$$$
>  <compound>
NC(=O)Cc1ccccc1Oc1nccc(-c2c(-c3ccc(F)cc3)ncn2C2CCNCC2)n1

>  <inhibition / %>
-0.3

$$$$
>  <compound>
COc1cc2ncn(-c3cc(OCCc4ccccc4)c(C(N)=O)s3)c2cc1OC

>  <inhibition / %>
-2.68

$$$$

State the recorded inhibition for every item in the following list.
1. O=C1Nc2ccc(I)cc2C1=Cc1cc(Br)c(O)c(Br)c1
2. C/C(Nc1ccc(S(N)(=O)=O)cc1)=C1/C(=O)Nc2ccccc21
3. CN(C)CCOc1ccc(-c2cc(-c3ccc4c(c3)CCC4=NO)c(-c3ccncc3)o2)cc1
4. Cc1ccc(C(=O)NC2CCC2)cc1-c1ccc(C(=O)NCC2CC2)cc1
5. CCc1cccc(CC)c1/C=C/c1cncc(C(=O)NC)c1

Output:
1: 27.2; 2: 4.16; 3: 3.76; 4: -0.59; 5: -0.17

* * *

Test system: Tyrosine-protein kinase ABL1 (Homo sapiens), P00519 [Y253F]
conditionParameters: at 0.1 µM
Would you mind telling me the reported inhibition of each entry?
Answers are plain numbers, in %.

>  <compound>
COc1cc(Nc2ncc(-c3ccccc3)o2)cc(OC)c1OC

>  <systemName>
Tyrosine-protein kinase ABL1 (Homo sapiens), P00519 [Y253F]

>  <endpointName>
inhibition

>  <measValue>
16.7

$$$$
>  <compound>
COc1cccc(/C=N/Nc2ncnc3c2cnn3-c2cccc(OC)c2)c1

>  <systemName>
Tyrosine-protein kinase ABL1 (Homo sapiens), P00519 [Y253F]

>  <endpointName>
inhibition

>  <measValue>
11.1

$$$$
>  <compound>
Fc1ccc(-c2ncn(CCCN3CCOCC3)c2-c2ccncc2)cc1

>  <systemName>
Tyrosine-protein kinase ABL1 (Homo sapiens), P00519 [Y253F]

>  <endpointName>
inhibition

>  <measValue>
-0.87

$$$$

State the recorded inhibition for every item in the following list.
1. Nc1nccc(-c2c(-c3ccc(F)cc3)ncn2C2CCC(O)CC2)n1 (centres undefined)
2. COc1ccc(-c2ccc3c(NC(=O)C4CC4)n[nH]c3n2)cc1

Output:
1. 1.83
2. 2.3

Hello, the source for this data is ChEMBL document CHEMBL1961873, in case you need it.
